Cited source: ChEMBL document CHEMBL1914371

Answer each item with its documented pKi.
assayTarget: D(2) dopamine receptor (Homo sapiens, UniProt P14416)
Sequence (P14416 whole entry): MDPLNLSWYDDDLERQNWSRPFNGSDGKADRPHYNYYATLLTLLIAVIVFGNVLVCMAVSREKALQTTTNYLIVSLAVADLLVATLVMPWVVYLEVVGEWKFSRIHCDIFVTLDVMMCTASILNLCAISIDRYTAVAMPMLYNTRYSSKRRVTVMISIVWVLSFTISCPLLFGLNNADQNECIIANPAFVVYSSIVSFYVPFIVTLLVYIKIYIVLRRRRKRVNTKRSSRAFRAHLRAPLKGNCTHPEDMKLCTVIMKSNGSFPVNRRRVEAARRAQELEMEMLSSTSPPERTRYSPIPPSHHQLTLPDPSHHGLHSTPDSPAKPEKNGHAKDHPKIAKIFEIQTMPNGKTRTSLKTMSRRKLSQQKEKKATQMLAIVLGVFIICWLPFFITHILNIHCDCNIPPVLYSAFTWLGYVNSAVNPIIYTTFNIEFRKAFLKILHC
procedureDetails: Displacement of [3H]spiperone from human DRD2 short receptor expressed in chinese hamster CHO cells by radioligand binding assay
Type: cell-based
Numbers only, as −log10 of the molar value.

> print(dat)
                                entrysmiles  measuredvalue
1  CCCN(CCCCNC(=O)c1ccc(OCCCc2cn(CCCCCCCCn3cc(CCCOc4ccc(CN5CCN(c6ccccc6OC)CC5)cc4OC)nn3)nn2)c(OC)c1)C1Cc2ccccc2C1           8.06
2  CCCCn1cc(CCCOc2ccc(C(=O)NCCCCN3CCN(c4ccccc4OC)CC3)cc2OC)nn1           7.92
3  CCCN(CCCCNC(=O)c1ccc(OCCCc2cn(CCCCCCCCn3cc(CCCOc4ccc(C(=O)NCCCCN(CCC)C5Cc6ccccc6C5)cc4OC)nn3)nn2)c(OC)c1)C1Cc2ccccc2C1           7.80

Kindly consider the entry below.
Short answer for CCCN(CCCCNC(=O)c1ccc(OCCCc2cn(CCCCCCCCn3cc(CCCOc4ccc(C(=O)NCCCCN5CCN(c6ccccc6OC)CC5)cc4OC)nn3)nn2)c(OC)c1)C1Cc2ccccc2C1 : pKi was 7.77
